# procedure-details: Toxicokinetics in the 28 day dog study of DIO-902 (with racemic ketoconazole group a);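 note: beagle dogs dosed orally once daily within a 28-day GLP study, 3 animals per sex per group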
# run-parameters: male, beagle, plasma, po, 2 mg/kg, Drug concentration in plasma, dogs, 2 mg/kg oral, day 28, M, 12 h
attribute-measured: concentration at 12 h

Please list concentration at 12 h recorded for the molecule CC(=O)N1CCN(c2ccc(OC[C@@H]3CO[C@@](Cn4ccnc4)(c4ccc(Cl)cc4Cl)O3)cc2)CC1 [DIO-902]
< 250 ng/mL

* * *

# procedure-details: Toxicokinetics of racemic ketoconazole in another 28-day dog study (b)
# run-parameters: female, beagle, dog, plasma, po, 40 mg/kg, AUC(0-12), dogs, study b, powder, 40 mg/kg oral, day 1, F; footnote: AUC data is for 0-24 h
attribute-measured: AUC(0-t) (ng·h/mL)
The reply should be a number in ng·h/mL, with the unit left off.

Please list AUC(0-t) recorded for the compound CC(=O)N1CCN(c2ccc(OCC3COC(Cn4ccnc4)(c4ccc(Cl)cc4Cl)O3)cc2)CC1 (racemic) [Racemic ketoconazole]
42900

Origin of the recorded values: patent US11478471B2
